test system: UACC-257 melanoma; test: NCI-60 one-dose screen, 48 h; conditions: 10 µM unless noted
This is part of a sample that, as a whole, favours compounds with a hit. Of some 83,000 tested, about 20% had one in any assay. Active and inactive are the calls of the source. How the source made its calls: active means growth percent below 10; inactive means the rest.
Classes used: true (active), false (inactive)

Smiles Data	Discrete Label
Cc1nc2ncccc2nc1Nc1ccc(S(=O)(=O)Nc2cncs2)cc1	false
CN1CCN(Cc2ccc(NC(=O)c3nc4ccc5[nH]ncc5c4c4c3CCC4)cc2C(F)(F)F)CC1	true
N#Cc1c(-c2ccccc2)nc(SCC(=O)N2CCN(c3ccccc3)CC2)[nH]c1=O	false
COc1ccc(C(=O)N2NC(=O)/C(=C/c3ccccc3F)N=C2c2ccccc2)cc1	false
CCCCCCCCN(CCCCCCCC)CCCCCCNc1cc(OC)cc2cccnc12	false

---

system: SK-MEL-5 melanoma; test: NCI-60 one-dose screen, 48 h (100 = growth as untreated, 0 = no growth, -100 = all killed); settings: 10 µM unless noted
This is part of a sample that, as a whole, favours compounds with a hit. Of some 83,000 tested, about 20% had one in any assay.

Molecule	Unit Of Measure	growth
CC12CCC3C4(C)COC(c5ccco5)OC4CCC3(C)C1CC(C1=CCOC1=O)O2 (stereo not given)	%	101
OC(c1cc2cc(Br)ccc2c2cc(Br)ccc12)C1CCCCN1 (stereo not given)	%	-1.27
Clc1ccccc1-c1nc2ccccc2[nH]1	%	102
O=C(NNC(=O)N1c2ccccc2C=Cc2ccccc21)c1ccc2ccccc2c1	%	92
CCOC(=O)C1C(=O)C=C(c2ccc(OC)cc2)CC1c1sc(N(C)Cc2ccccc2)nc1Cl (stereo not given)	%	81

---

System: PC-3 prostate
Assay: NCI-60 one-dose screen, 48 h (100 = growth as untreated, 0 = no growth, -100 = all killed)
Details: 10 µM unless noted
Method: Growth inhibition of the PC-3 human tumor cell line is measured as a screen for anti-cancer activity. Cells are grown in 96 well plates and exposed to the test compound for 48 hours. Compounds are tested at a single concentration, which is 10^-5 M for most compounds. The reported endpoint is percent growth (GI% or GIPRCNT), where numbers from 0 - 100% represent growth inhibition, and numbers from -100% - 0 represent cell death. For example, a value of 40 represents 60% growth inhibition. […]
About 83,000 compounds went through this panel and 20% of them were active in at least one assay; those are over-represented in the sample as a whole.
Measured growth accompanies every entry in the list below.
Readout Kind: growth (%)

Molecule	Measured Number
C=C1CCC2C(C)(CO)C(O)CCC2(C)C1C/C=C1/C(=O)OCC1Oc1ccccc1C (stereo not given)	86.3
Nc1nc(Nc2cc(Cl)cc(Cl)c2)nn1S(=O)(=O)c1ccc2ccccc2c1	48.9
Cc1nc2ncccc2nc1Nc1ccc(S(=O)(=O)Nc2cncs2)cc1	86.6
C=C1C(=O)O[C@H]2[C@H]1CC/C(Cn1cc(CNC(=O)/C=C/c3c[nH]c4ccccc34)nn1)=C\CC[C@@]1(C)O[C@@H]21	95.3
O=c1[nH]c2ccc(Br)cc2c2c1C(c1ccc(Cl)cc1)c1c(ncn3nc(-c4ccco4)nc13)O2 (stereo not given)	72.1

---

Tested on: OVCAR-8 ovarian
Assay: NCI-60 one-dose screen, 48 h (100 = growth as untreated, 0 = no growth, -100 = all killed)
Conditions: 10 µM unless noted
Method: Growth inhibition of the OVCAR-8 human tumor cell line is measured as a screen for anti-cancer activity. Cells are grown in 96 well plates and exposed to the test compound for 48 hours. Compounds are tested at a single concentration, which is 10^-5 M for most compounds. The reported endpoint is percent growth (GI% or GIPRCNT), where numbers from 0 - 100% represent growth inhibition, and numbers from -100% - 0 represent cell death. For example, a value of 40 represents 60% growth inhibition. […]
Compounds without any hit were thinned out: in the full panel of roughly 83,000, 20% have a hit.

Molecule	growth (%)
COc1ccc2c(c1)[nH]c(=O)c1c3cc(OC)ccc3cn21	4.9
c1ccc(-c2nnc(-c3ccccn3)s2)nc1	94
CC[N+](CC)=c1cc2oc3cc(N(C)C)ccc3nc-2cc1C	8.33
C=C1CCC2C(C)(CO)C(O)CCC2(C)C1C/C=C1/C(=O)OCC1Oc1ccccc1C (stereo not given)	72.5
COc1cc(C2CC(c3ccc4c(c3)OCO4)=NN2C(C)=O)cc(OC)c1OC (stereo not given)	42
COc1cccc(/C=C/C(=O)Nc2cc(OC)c3c(c2)OCO3)c1	105
O=C1c2ccccc2-c2ccccc2C1(Cl)Cl	-90.4
CCCCCCCC[C@@H](O)CC(=O)N[C@@H](CC(N)=O)C(=O)N[C@@H](CCC(N)=O)C(=O)N[C@@H](CC(=O)c1cc(C)cc(O)c1C(=O)c1c(O)cccc1O)CC(C)C	47.6
CN1C(=O)N(C)C2C1NN=c1s/c(=C\c3cccnc3)c(=O)n12 (stereo not given)	93.2
Cc1c(C(=O)/C=C/c2csc3ccccc23)[n+](=O)c2ccccc2n1[O-]	21.1

---

system: MCF7 breast; experiment: NCI-60 one-dose screen, 48 h; conditions: 10 µM unless noted
About 83,000 compounds went through this panel and 20% of them were active in at least one assay; those are over-represented in the sample as a whole. The source made the active and inactive calls. The calls were made as follows: active = growth percent below 10; inactive = the rest.
Outcome codes: active, inactive

Compound	Discrete Label
O=S(=O)(NCCNc1nccc(-c2c(-c3cccc(O)c3)nc3sccn23)n1)c1ccc(F)cc1	inactive
c1ccc(-c2nc(N3CCNCC3)c3nc(-c4ccccc4)oc3n2)cc1	active
NC(=N\N=C/c1ccc(O)cc1)/C(N)=N\N=C/c1ccc(O)cc1	inactive
COc1ccc(/C=C(\C#N)c2cc(OC)c3c(c2)OCO3)cc1	inactive
COc1ccc(-c2nc3sccn3c2/C=C/C(=O)c2cc(F)cc(F)c2)cc1	inactive
O=C(Nc1cccc(-n2cc(-c3ccncc3)c(-c3ccc(Cl)c(O)c3)n2)c1)c1ccc(N2CCOCC2)c(C(F)(F)F)c1	inactive
COc1ccc(-c2ccc(-c3ccc(C(=N)N)cn3)s2)cc1OC	inactive
NC(N)=Nc1nc2ccccc2o1	inactive
Brc1ccc(-c2[nH]ncc2-c2c[nH]c3ccccc23)cc1	inactive
O=Nc1c(-c2cccc([N+](=O)[O-])c2)nc2ncccn12	inactive
COc1ccc(C(=O)c2cc(OC)c(OC)c(OC)c2OC)cc1O	inactive
C/C=C/C1=CN2C(=O)c3cc(OC4OC(C)C(NC)C(C)(O)C4O)c(C)cc3N=C[C@@H]2C1 (stereo partly drawn)	active
Oc1ccc2cc(Br)ccc2c1-c1c(O)ccc2cc(Br)ccc12	inactive
O=c1ccn(C2CC(O)C(O)C(CO)O2)c(=O)[nH]1 (stereo not drawn)	inactive
C=C1CCC2C(C)(CO)C(O)CCC2(C)C1CC(NCc1ccccc1)C1=CCOC1=O (stereo not drawn)	inactive
O=C1Nc2ccc(Cl)cc2C12Nc1cc(Cl)ccc1S2 (stereo not drawn)	inactive
CN(C)CCCC(C#N)c1ccccc1 (stereo not drawn)	inactive
COc1ccc(NC(=O)c2cc(OC)c(OC)c(OC)c2)cc1O	inactive
COc1cc2c(cc1OCCCN1CCN(CCCn3c4ccccc4c4ccccc43)CC1)N=C[C@@H]1CCCN1C2=O	active
COc1ccc(S(=O)(=O)NCCCNc2nccc(-c3c(-c4cccc([N+](=O)[O-])c4)nc4sccn34)n2)cc1	inactive
C=C[C@@H]1C[C@H](O)Cc2ccccc2N1	inactive
COC(OC)c1ccccc1	inactive
CCOC(=O)C1CCNC(=O)C1=O (stereo not drawn)	inactive

---

Measured growth, listed per entry for reference.
test system: UACC-62 melanoma; experiment: NCI-60 one-dose screen, 48 h (100 = growth as untreated, 0 = no growth, -100 = all killed); conditions: 10 µM unless noted
Compounds without any hit were thinned out: in the full panel of roughly 83,000, 20% have a hit.
Readout Kind: growth (%)

Molecule	Unit Of Measure	Measured Number
COc1cc2c(cc1OCCCCCn1c3ccccc3c3ccccc31)N=C[C@@H]1CCCN1C2=O	%	-90.3
O=C1C2(c3ccccc3)C(c3ccccc3)=C(c3ccccc3)C1(c1ccccc1)C1CC=CC12 (stereo not given)	%	78.3
COc1cc(-c2nn(-c3cccc(NC(=O)c4ccccc4)c3)cc2-c2ccncc2)ccc1Cl	%	32.5
COc1ccc(/C=N\NC(=O)CN2CCN(c3cc4c(cc3F)c(=O)c(C(=O)N/N=C/c3ccc(OC)c(OC)c3)cn4C3CC3)CC2)cc1OC	%	-52.1
Cn1ccc(=O)c(S(N)(=O)=O)c1	%	95.8

---

tested on: MCF7 breast; assay: NCI-60 one-dose screen, 48 h (100 = growth as untreated, 0 = no growth, -100 = all killed); conditions: 10 µM unless noted
This is part of a sample that, as a whole, favours compounds with a hit. Of some 83,000 tested, about 20% had one in any assay.
growth by entry:
Readout Kind: growth (%)

Molecule	Readout Kind	Measured Number
CN1CCN(CCCOc2ccc3nc(Nc4ccc(Cl)c(C(F)(F)F)c4)ccc3c2)CC1	growth	27.1
CCCOC(=O)n1cccc1	growth	95
COc1ccc(NC(=O)c2c(Nc3ccc(OC)cc3OC)n[nH]c2N)c(OC)c1	growth	76.4
Cc1ccc(S(=O)(=O)NCCNc2nccc(-c3c(-c4cccc(N)c4)nc4sccn34)n2)cc1	growth	83.4
COc1ccc(C(=O)NC(=O)Nc2cc3c(cc2F)/C(=C/c2[nH]c(C)c(CCC(=O)O)c2C)C(=O)N3)c(F)c1	growth	41.7
CCCCCCCCC(C)OC(=O)c1nn(C(C)=O)c2ccccc12 (configuration not stated)	growth	90.1
CCCCNC(=O)Oc1ccc(/C(=C(\C)c2ccccc2)c2ccc(OCCN(CC)CC)cc2)cc1	growth	33.8
COc1cccc(/C=C/C(=O)Nc2cc(OC)c3c(c2)OCO3)c1	growth	102
O=[N+]([O-])c1cc(S(=O)(=O)Oc2ccccc2)ccc1Cl	growth	-64.3
COc1cc(-c2nc(N=Nc3c(O)[nH]c4ccc(Br)cc34)[nH]c(=O)c2C#N)cc(OC)c1OC	growth	99.7
N=C(N)c1ccc(-c2cc(Cl)cc(Cl)c2)cn1	growth	75.9
COC(=O)C(Sc1ccc(Cl)cc1)C1SC(=S)N(Cc2ccccc2)C1=O (configuration not stated)	growth	77.2
CCC(C)/C(=C\C#N)NCCCN/C(=C/C#N)C(C)CC (configuration not stated)	growth	100
NC(N)=N/N=C/c1ccc(-c2ccc(-c3cc(Cl)cc(Cl)c3)s2)cc1	growth	-39.9
CC12CCC3C4(C)COC(c5ccccc5Cl)OC4CCC3(C)C1CC(C1=CCOC1=O)O2 (configuration not stated)	growth	46.6
S=c1[nH]nc(-c2cc3ccc2CCc2ccc(cc2)CC3)n1C1CC1	growth	90.5
Oc1ccc(Cl)cc1-c1cc(-c2ccc(F)cc2)n[nH]1	growth	15.8
COc1cc(-c2ncn(/C=C\C(=O)OC(C)C)n2)cc(C(F)(F)F)c1	growth	-24.5
Cc1ccc(-c2cc3nc(-c4ccccc4)nc(C(Cl)Cl)n3n2)cc1	growth	-10.7
O=C(Nc1ccncc1)C(=O)c1cn(S(=O)(=O)c2ccccc2F)c2ccccc12	growth	21.5
Nc1cccc(-c2nc3sccn3c2-c2ccnc(NCCNS(=O)(=O)c3ccc(C(F)(F)F)cc3)n2)c1	growth	32.8
CCCCCCCCCCCC(=O)NCCC[N+](C)(C)CC(=O)[O-]	growth	99.8
COc1ccc(C2NN=C3c4ccccc4CCC32)cc1 (configuration not stated)	growth	5.11
O=S(=O)(CC(O)(c1ccccc1)c1ccccc1)CC(O)(c1ccccc1)c1ccccc1	growth	80.9
COc1cc(NC(N)=NCCC(C)(C)Oc2ccc(C(F)(F)F)cc2)ncc1C#N	growth	-71.1
CC(C)(C)c1[nH]nc2c1C(c1cc3ccccc3[nH]c1=O)Nc1cc(C(=O)Nc3ccc(Cl)cc3)ccc1N2 (configuration not stated)	growth	27.8
COc1ccc(-c2cnoc2-c2ccc(OC)cc2O)cc1	growth	19.6
Cc1csc(NC(c2ccc(Br)cc2)c2c(C)nc3ccccn23)n1 (configuration not stated)	growth	83.3
O=c1[nH]c(Nc2ccc(S(=O)(=O)O)cc2)nc2nc(Nc3ccc(NC(=S)Nc4ccccc4)cc3)nc(-c3ccc(O)cc3O)c12	growth	107
Cc1ccc(-c2nc(C(Cl)Cl)n3nc(-c4ccccc4)cc3n2)cc1	growth	18.9
COc1ccc2c(c1)[nH]c(=O)c1c3cc(OC)ccc3cn21	growth	14.1
C=C1CCC2C3(C)COC(C)(C)OC3CCC2(C)C1C/C=C1/C(=O)OCC1Oc1ccccc1OC (configuration not stated)	growth	30.2
CCOC(=O)c1c(/N=C2\SC(=O)/C(=C\C(=O)OC)N2NC)sc2c1CCN(C(=O)OCC)C2	growth	98.7
N=C(N)c1ccc(-c2ccc(-c3cncc4ccccc34)s2)cc1F	growth	-68.6
CC(=O)Nc1ccc(/C=C/C(=O)c2ccccc2)cc1	growth	56.4
CCN(CC)c1ccc(N=O)cc1	growth	51.8
COc1ccncc1S(=O)(=O)NC(=O)Nc1ccc(Cl)c(Cl)c1	growth	105
Cc1ccc(S(=O)(=O)C2=C3C(=C(c4ccccc4)c4ccccc43)CN(S(=O)(=O)c3ccc(C)cc3)C2)cc1	growth	37.6
Nc1ncnc2c1c(-c1ccc(Oc3ccccc3)cc1)nn2C[C@@H]1SSC[C@@H]1O	growth	-4.42
COc1ccc(-c2[nH]nc(N)c2-c2cc(OC)c3c(c2)OCO3)cc1	growth	32.3
CC(C)OC(=O)N1CCOCC1	growth	100
CC(C)CSc1nc(NN)c(C#N)c(-c2ccccc2)n1	growth	88.2
